The values you see were collected from ChEMBL document CHEMBL1128936.

molecular target: Acetylcholine receptor subunit delta (Torpedo californica) (UniProt P02718); experiment: Compound was tested for its binding affinity against nicotinic acetylcholine receptor by spectrometry assay; settings: torpedo fuscomaculata
Sequence (P02718 whole entry): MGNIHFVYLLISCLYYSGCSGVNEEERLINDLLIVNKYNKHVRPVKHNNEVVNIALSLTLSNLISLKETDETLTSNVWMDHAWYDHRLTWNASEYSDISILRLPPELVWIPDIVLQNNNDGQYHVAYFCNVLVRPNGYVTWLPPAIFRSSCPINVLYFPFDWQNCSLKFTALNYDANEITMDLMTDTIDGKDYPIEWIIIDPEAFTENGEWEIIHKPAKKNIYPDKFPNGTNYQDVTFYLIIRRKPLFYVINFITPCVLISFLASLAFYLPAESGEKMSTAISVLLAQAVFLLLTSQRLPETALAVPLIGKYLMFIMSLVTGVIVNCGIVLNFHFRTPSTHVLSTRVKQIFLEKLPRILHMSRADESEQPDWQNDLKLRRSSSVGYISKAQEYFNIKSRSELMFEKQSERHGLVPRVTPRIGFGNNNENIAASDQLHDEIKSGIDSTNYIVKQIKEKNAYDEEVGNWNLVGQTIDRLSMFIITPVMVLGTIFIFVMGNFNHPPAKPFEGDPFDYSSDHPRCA
Catalogue of Kd1 readings, one per entry.
Numbers only; they are read as µM.

The cases that follow already have their Kd1 on record.
1. c1ccc2cnccc2c1: 3.3
2. COc1ccc2cc3[n+](cc2c1OC)CCc1cc2c(cc1-3)OCO2: 0.84
3. COc1ccc(Cc2nccc3cc(OC)c(OC)cc23)cc1OC: 2.4
4. COc1cc2c3cc1Oc1cc(ccc1O)C[C@@H]1c4c(cc(OC)c(O)c4Oc4ccc(cc4)C[C@@H]3N(C)CC2)CC[N+]1(C)C: 0.03

Then this molecule:
The reported Kd1 of the molecule `CC(=O)OCC[N+](C)(C)C` was 0.18
